molecular target: human Src enzyme (Homo sapiens, UniProt P12931); construct: purchased Carna Biosciences, Inc. 08-173; assay: Src enzyme inhibitory activity (time-resolved fluorometry, biotinylated peptide phosphorylation); format: biochemical; conditions: biotinylated peptide phosphorylation, read-out: SRC_IC50
Sequence (P12931 whole entry): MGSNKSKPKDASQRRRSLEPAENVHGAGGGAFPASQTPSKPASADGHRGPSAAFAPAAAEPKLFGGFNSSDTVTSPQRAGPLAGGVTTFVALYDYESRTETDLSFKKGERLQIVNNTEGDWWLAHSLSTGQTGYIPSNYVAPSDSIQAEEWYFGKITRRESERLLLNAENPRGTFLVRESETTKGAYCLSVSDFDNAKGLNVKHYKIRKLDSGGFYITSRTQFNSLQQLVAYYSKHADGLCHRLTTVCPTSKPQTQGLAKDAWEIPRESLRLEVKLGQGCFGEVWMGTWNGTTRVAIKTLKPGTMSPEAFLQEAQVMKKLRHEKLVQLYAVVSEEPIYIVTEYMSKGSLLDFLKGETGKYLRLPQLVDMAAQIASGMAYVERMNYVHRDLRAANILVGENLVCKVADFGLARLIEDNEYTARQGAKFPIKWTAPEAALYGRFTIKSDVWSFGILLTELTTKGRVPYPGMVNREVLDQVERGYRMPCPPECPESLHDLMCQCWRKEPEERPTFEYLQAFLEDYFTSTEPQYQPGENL
readoutKind: log10 of IC50 (log10 of the value in nM)
Reminder: these figures are log10 of reported IC50, in nM before transformation.

Cc1cc2cc(C(=O)c3cnn(-c4ccc(Oc5ccccc5F)cc4C)c3N)[nH]c2cc1NS(=O)(=O)c1cccc(C#N)n1 | 2.59

Request the reported log10 of IC50 associated with Cc1cc(Oc2c(F)cccc2F)ncc1-n1ncc(C(=O)c2cc3cc(F)c(NS(=O)(=O)c4c(F)cc(F)cc4F)cc3[nH]2)c1N
3.08

Endpoint output: log10 of IC50 of Cc1cc(Oc2ccccc2F)ccc1-n1ncc(C(=O)c2cc3cc(F)c(NS(=O)(=O)CC(=O)N4CCCC4)cc3[nH]2)c1N . Value?
1.41

Consider the molecule shown here: Cc1cc(Oc2c(F)cccc2F)ncc1-n1ncc(C(=O)c2cc3cc(N4CCOCC4)c(NS(=O)(=O)C4CC4)cc3[nH]2)c1N What is its recorded log10 of IC50?
2.23

Please look up its log10 of IC50: Cc1cc(Oc2ccccc2F)cc(F)c1-n1ncc(C(=O)c2cc3cc(OC(F)F)c(C4CCN(S(=O)(=O)C5CC5)CC4)cc3[nH]2)c1N
1.34

Using the record for Cc1cc(Oc2ccccc2F)ccc1-n1ncc(C(=O)c2cc3cc(OCC(F)F)c(N4CCCS4(=O)=O)cc3[nH]2)c1N , report its log10 of IC50.
1.51

* * *

A collection of molecules and their measured IC50
target: human Lck enzyme (Homo sapiens); construct: purchased Carna Biosciences, Inc. 08-170; experiment: Lck enzyme inhibitory activity (time-resolved fluorometry, biotinylated peptide phosphorylation); type: biochemical; details: read-out: LCK_IC50
Sequence (P06239 whole entry): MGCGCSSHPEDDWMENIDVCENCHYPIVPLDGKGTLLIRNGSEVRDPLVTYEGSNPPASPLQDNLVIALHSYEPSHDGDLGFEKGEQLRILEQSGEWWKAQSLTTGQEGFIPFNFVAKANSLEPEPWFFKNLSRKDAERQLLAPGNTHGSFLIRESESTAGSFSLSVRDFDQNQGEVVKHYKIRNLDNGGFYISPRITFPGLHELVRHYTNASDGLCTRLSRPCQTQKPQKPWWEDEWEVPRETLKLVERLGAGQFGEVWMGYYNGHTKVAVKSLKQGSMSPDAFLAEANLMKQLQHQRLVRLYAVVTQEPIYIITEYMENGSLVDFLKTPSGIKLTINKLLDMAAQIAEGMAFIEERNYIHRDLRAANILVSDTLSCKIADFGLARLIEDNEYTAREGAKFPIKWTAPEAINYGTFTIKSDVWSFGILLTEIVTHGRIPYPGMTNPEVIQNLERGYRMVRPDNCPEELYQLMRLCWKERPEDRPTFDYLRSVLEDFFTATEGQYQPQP
Report the value in nM with no unit label.

Observe how each entry below is paired with its result.
Cc1cc2cc(C(=O)c3cnn(-c4ccc(Oc5ccccc5F)cc4C)c3N)[nH]c2cc1N1C(=O)NC2(CC2)C1=O | 6.1
Cc1cc(Oc2c(F)cccc2F)ncc1-n1ncc(C(=O)c2cc3cc(OC4CCN(C5CCC5)CC4)c(Br)cc3[nH]2)c1N | 7.5
Cc1cc(Oc2c(F)cccc2F)ncc1-n1ncc(C(=O)c2cc3cc(F)c(N4C(=O)C(C)(C)NC4=S)cc3[nH]2)c1N | 7
Cc1cc2cc(C(=O)c3cnn(-c4ccc(Oc5ccccc5F)cc4C)c3N)[nH]c2cc1N1C(=O)NC2(CCCC2)C1=O | 14
Cc1cc2cc(C(=O)c3cnn(-c4ccc(Oc5cc(F)ccc5F)cc4C)c3N)[nH]c2cc1NS(C)(=O)=O | 7.9

Look at this molecule and give its reported IC50. Cc1cc(Oc2ccccc2F)ccc1-n1ncc(C(=O)c2cc3cc(N4CCOCC4)c(N4CCC(N5CCOCC5)CC4)cc3[nH]2)c1N
10

Give its IC50 value. Item: Cc1cc(Oc2c(F)cccc2F)ncc1-n1ncc(C(=O)c2cc3cc(OC4CCN(C5CC5)CC4)c(Br)cc3[nH]2)c1N
6.3

Any idea what IC50 was measured for Cc1cc(Oc2c(F)cccc2F)ncc1-n1ncc(C(=O)c2cc3cc(OC(F)F)c(-n4c(C)cc(=O)[nH]c4=O)cc3[nH]2)c1N ?
8.2
